experiment: Pharmacokinetic (PK) test in mice; format: in vivo, DBA/1 mice; details: mouse, plasma, po; DBA/1 mice, gavage vs tail vein injection, mean
recorded_endpoint: bioavailability (%)

In [3]: df
Out[3]:
                                   compound  recorded_number
0  CN(c1ncnc2[nH]ccc12)C1CCn2cc(CC#N)nc2C1 (racemic)             74.4
1  CN(c1ncnc2[nH]ccc12)[C@H]1CCn2cc(C#N)nc2C1 (single isomer, unassigned)             73.9
2  CN(c1ncnc2[nH]ccc12)C1CCn2cc(C#N)nc2C1 (racemic)               87

----------
Recorded IC50 values for a group of compounds are listed next.
molecular target: UniProtKB P23458; experiment: Test for in vitro activity of JAK1 kinase (LANCE Ultra ULight peptide); settings: recombinant human JAK1, 38 uM ATP, 90 min

Solved entries (count: 4):
                                   compound  recorded_endpoint          result
0  CN(c1ncnc2[nH]ccc12)C1CCn2cc(C(=O)NC3CC(F)(F)C3)nc2C1 (centres unmarked)               IC50       > 1000 nM
1  CNC(=O)c1cn2c(n1)CC(N(C)c1ncnc3[nH]ccc13)CC2 (centres unmarked)               IC50  100 to 1000 nM
2  CN(c1ncnc2[nH]ccc12)C1CCn2cc(C(=O)NCC(F)F)nc2C1 (centres unmarked)               IC50  100 to 1000 nM
3  CCOC(=O)c1cn2c(n1)CC(N(C)c1ncnc3[nH]ccc13)CC2 (centres unmarked)               IC50  100 to 1000 nM

Here's the next entry for you.
Provide IC50 value for the following compound: CN(c1ncnc2[nH]ccc12)C1CCn2cc(CC#N)nc2C1 (racemic) [WX552]
10 to 100 nM

----------
molecular target: JAK1 (Homo sapiens, UniProt P23458); test: Test for in vitro activity of JAK1 kinase (LANCE Ultra ULight peptide); settings: recombinant human JAK1, 38 uM ATP, 90 min
Sequence (P23458 whole entry): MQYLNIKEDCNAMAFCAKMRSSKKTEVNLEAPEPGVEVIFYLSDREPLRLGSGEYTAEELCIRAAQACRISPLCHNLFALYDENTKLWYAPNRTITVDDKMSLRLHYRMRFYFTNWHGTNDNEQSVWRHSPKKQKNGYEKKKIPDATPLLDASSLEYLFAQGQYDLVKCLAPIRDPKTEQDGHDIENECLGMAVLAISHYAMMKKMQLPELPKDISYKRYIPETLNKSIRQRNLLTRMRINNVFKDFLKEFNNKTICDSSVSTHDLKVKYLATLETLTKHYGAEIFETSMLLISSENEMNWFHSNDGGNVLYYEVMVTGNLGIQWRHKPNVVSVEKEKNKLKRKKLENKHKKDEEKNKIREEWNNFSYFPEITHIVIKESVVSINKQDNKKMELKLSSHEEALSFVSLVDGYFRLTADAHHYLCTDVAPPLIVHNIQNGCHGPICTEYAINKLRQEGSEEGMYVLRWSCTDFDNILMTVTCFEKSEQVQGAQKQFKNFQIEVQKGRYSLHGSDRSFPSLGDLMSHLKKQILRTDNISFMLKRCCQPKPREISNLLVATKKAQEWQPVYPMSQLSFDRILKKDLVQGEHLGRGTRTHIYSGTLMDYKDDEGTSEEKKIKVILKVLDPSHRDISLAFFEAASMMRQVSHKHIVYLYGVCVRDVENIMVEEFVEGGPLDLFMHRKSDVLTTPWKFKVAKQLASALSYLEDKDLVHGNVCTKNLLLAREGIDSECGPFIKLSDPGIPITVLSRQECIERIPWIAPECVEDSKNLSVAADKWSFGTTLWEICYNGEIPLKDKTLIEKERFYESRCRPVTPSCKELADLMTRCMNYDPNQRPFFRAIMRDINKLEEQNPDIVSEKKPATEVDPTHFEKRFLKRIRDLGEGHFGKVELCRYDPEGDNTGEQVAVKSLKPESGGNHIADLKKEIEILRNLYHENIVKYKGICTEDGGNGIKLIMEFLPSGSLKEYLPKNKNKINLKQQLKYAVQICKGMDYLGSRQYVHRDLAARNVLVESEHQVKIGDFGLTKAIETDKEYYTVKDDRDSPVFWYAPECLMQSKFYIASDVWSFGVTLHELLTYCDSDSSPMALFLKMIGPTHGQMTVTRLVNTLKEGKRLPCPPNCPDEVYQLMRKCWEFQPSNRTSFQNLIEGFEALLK
recorded_endpoint: IC50

Reference set, count: 2
In [3]: df
Out[3]:
                                   compound       result
0  CN(c1ncnc2[nH]ccc12)[C@H]1CCn2cc(C#N)nc2C1 (single isomer, unassigned)    ≤ 0.01 µM
1  CN(c1ncnc2[nH]ccc12)C1CCn2cc(CO)nc2C1 (centres unmarked)  0.1 to 1 µM

Look up and report measured IC50 for this entry: CNCc1cn2c(n1)CC(N(C)c1ncnc3[nH]ccc13)CC2 (centres unmarked)
> 1 µM

Provide measured IC50 value, entry: CN(c1ncnc2[nH]ccc12)C1CCn2cc(CNS(C)(=O)=O)nc2C1 (centres unmarked)
0.1 to 1 µM

Note down IC50 recorded for CN(c1ncnc2[nH]ccc12)C1CCn2cc(C#N)nc2C1 (racemic)
0.01 to 0.1 µM

Complete the entry with IC50 for CN(c1ncnc2[nH]ccc12)C1CCn2cc(C(=O)NCCS(C)(=O)=O)nc2C1 (centres unmarked)
> 1 µM

Find the measured IC50 of CN(c1ncnc2[nH]ccc12)C1CCn2cc(CC#N)nc2C1 (single isomer, unassigned) [WX612] and report it.
> 1 µM
